Target: human 5-HT4b receptor (Homo sapiens, UniProt Q13639)
Construct: expressed in transfected cells; host or cells: CHO cells (G418 selection)
Sequence (Q13639 whole entry): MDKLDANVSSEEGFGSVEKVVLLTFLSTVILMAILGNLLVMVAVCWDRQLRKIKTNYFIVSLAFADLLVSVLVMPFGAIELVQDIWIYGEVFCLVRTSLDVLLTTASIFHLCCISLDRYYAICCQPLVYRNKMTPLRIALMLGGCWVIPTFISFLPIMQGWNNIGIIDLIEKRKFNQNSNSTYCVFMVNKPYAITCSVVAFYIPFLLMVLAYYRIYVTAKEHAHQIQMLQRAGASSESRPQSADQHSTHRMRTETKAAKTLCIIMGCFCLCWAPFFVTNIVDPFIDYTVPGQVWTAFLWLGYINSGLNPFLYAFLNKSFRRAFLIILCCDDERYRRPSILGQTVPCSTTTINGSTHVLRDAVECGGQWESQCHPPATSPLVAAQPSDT
Experiment: Test Example 4: Serotonin 4 (5-HT4) receptor agonist activity assay, cAMP HTRF in CHO cells (Table 100)
Type: cell-based
Settings: CHO, 0.25 h; intrinsic activity, maximal activity of 5-HT defined as 100%; mean value; read-out: IA (%)
Protocol: The cAMP measurement test used herein was carried out by using CISBIO HTRF (trademark) cAMP Hirange kit according to the manufacturer's instructions attached therewith. CHO cells expressing human 5-HT4b receptor were incubated in Medium 1 [DMEM/1% NEAA, 1% penicillin/streptomycin (P/S), 0.2 mg/mL GENETICIN (G418), 10% FBS] at 37° C. under 5% CO2 condition. […] Then, time-resolved fluorescence was measured by En Vision (excitation wavelength: 330 nm, fluorescence wavelength: 620/665 nm). […]
Where a name gives a salt, the structure may show the parent alone.
Each record is given true if its reported Emax is strictly below 70%. Records at or above 70% are given false.

1. CC(C)c1nn(-c2noc(C3CCN(C4CCN(C(=O)CO)CC4(C)C)CC3)n2)c2c(F)cccc12 (stereo not drawn)	false
2. COCCNC1CC(c2nc(-n3nc(C(C)C)c4cccc(F)c43)no2)C1 (stereo not drawn)	false
3. CC(C)c1nn(-c2noc(C3CCN(C4CCN(C(=O)CO)CC4)CC3)n2)c2ccccc12	false
4. CC(C)c1nn(-c2noc(C[C@H]3CCN(C[C@H]4CCN(S(C)(=O)=O)C4)C3)n2)c2c(F)cccc12	true
5. CC(C)c1nn(-c2noc(C[C@H]3CCN(C[C@@H]4CCN(S(C)(=O)=O)C4)C3)n2)c2c(F)cccc12	true
6. CCc1nn(-c2noc(C3CCN(C[C@H]4CCN(C(C)=O)C4)CC3)n2)c2c(F)cccc12 [Example 209, hydrochloride]	false
7. CC(=O)N1CCC[C@@H]1CN1CC[C@@H](Cc2nc(-n3nc(C(C)C)c4cccc(F)c43)no2)C1	true
8. CCc1nn(-c2noc(C3CCN(CC4CCN(C(=O)CO)CC4)CC3)n2)c2c(F)cccc12	true
9. CCc1nn(-c2noc(C3CCN(C4CCCC4)CC3)n2)c2c(F)c(F)ccc12	true
10. CC(=O)N1CC[C@@H](CN2CC[C@H](Cc3nc(-n4nc(C(C)C)c5cccc(F)c54)no3)C2)C1	false
11. CC(C)c1nn(-c2noc([C@H]3C[C@@H](NCC4CCCO4)C3)n2)c2c(F)cccc12 (relative stereo)	false
